From various publications: IC50 for Tyrosine-protein kinase receptor UFO (Homo sapiens, UniProt P30530).

COC[C@H](C)Nc1ncc2c(-c3cnn(CC(=O)N4CCN(C)CC4)c3)cc([C@H]3CC[C@H](O)CC3)n2n1 : 100 to 1000 nM
COc1cc2nccc(Oc3ncc(NC(=O)c4cn(C(C)C)nc(-c5ccc(F)cc5)c4=O)cn3)c2cc1OC : 4 nM

Tell me the measured IC50 of COC[C@H](C)Nc1ncc2c(OC3CCOCC3)ncc(C3CCCCN3C)c2n1 (some centres unmarked) , please.
1000 to 10000 nM

Now consider Cc1ccc(Nc2ncc3c(n2)N2CCN=C2C(c2cc(NC(=O)c4cn(C(C)C)c(=O)n(-c5ccc(F)cc5)c4=O)ccc2C)=C3)cn1 .
> 10000 nM

Now consider Nc1ncc(-c2cn[nH]c2)cc1-c1noc(-c2ccccc2)n1 .
< 500 nM

Now consider CCCC(C)Nc1ncc2c(OC3CCS(=O)(=O)CC3)ncc([C@H]3CC[C@@H](O)CC3)c2n1 (some centres unmarked) .
1000 to 10000 nM

Now consider C[C@@H](CC(F)F)Nc1ncc2c(O[C@H]3C[C@@H](O)C3)ncc([C@H]3CC[C@H](O)CC3)c2n1 .
≤ 100 nM

Now consider CNC(=O)Nc1ccc(-c2cnc(OC3CCOCC3)c3cnc(N[C@@H](C)COC)nc23)cc1 .
1000 to 10000 nM

Now consider COC[C@H](C)Nc1ncc2c(-c3ccnc(N4CCO[C@H](C(C)(C)O)C4)c3)cc([C@H]3CC[C@H](O)CC3)n2n1 .
≤ 100 nM
